tested on: breast (MCF7) carcinoma cell line; test: cells; assay type: cell-based, human; conditions: read-out: Cytotoxic activity IC90, MCF7
*1 amine or outer side, *2 acyl side, *3 side chain or, on linkers, in order; H or OH if unused. Where a SMILES comes first, the peptide text is derived from it. [ ]: non-standard residue; d: D form. X3 = CC1C(C)C1C(N[*:1])C(=O)[*:2]; NMeL = CN[CH](CC(C)C)C(=O)O; NMeA = CN[CH](C)C(=O)O
readout_label: IC90 (nM)
State just the number; it will be interpreted in nM.

1. CC(C)CC1NC(=O)C(C)N(C)C(=O)C(C)N(C)C(=O)C(C2C(C)C2C)NC(=O)C(CC(C)C)N(C)C(=O)C(C)N(C)C(=O)C(C2C(C)C2C)NC1=O (centres unmarked) [Compound 1] (cyclo([X3][NMeA][NMeA]L[X3][NMeA][NMeL]); configuration not given here) = 1.47

Please examine the following record next.
IC90 for CC(C)CC1NC(=O)C(C)N(C)C(=O)C(C)N(C)C(=O)C(C2C(C)C2C)NC(=O)C(CC(C)CO)N(C)C(=O)C(C)N(C)C(=O)C(C2C(C)C2C)NC1=O (centres unmarked) [Compound 2] ? 9.21
